Molecular target: CDK2/Cyclin E1 (Homo sapiens, UniProt P24941)
Assay: CDK2/Cyclin E1 Biochemical Assay (TR-FRET), 0.060 mM ATP
Conditions: 0.15 μM Rb (Ser780)-biotin substrate, pH7.0, 60 min preincubation, 120 min reaction, room temperature
property: IC50 (nM)

Take a look at these entries with their results.
molecule	subject_of_test	property	unit_string	recorded_measurement
CC(C)NC(=O)O[C@H]1CC[C@@H](c2cc(Nc3cc4c(cc3F)CNS4(=O)=O)n[nH]2)C1 (single isomer, unassigned) [Example 1b]	CDK2/Cyclin E1 (Homo sapiens, UniProt P24941)	IC50	nM	18
CC(C)NC(=O)O[C@H]1CC[C@@H](c2cc(Nc3ccc4c(c3F)CS(=O)(=O)N4CC(F)(F)F)n[nH]2)C1 (single isomer, unassigned) [Example 263a]	CDK2/Cyclin E1 (Homo sapiens, UniProt P24941)	IC50	nM	2.1
COCC(C)(C)NC(=O)O[C@H]1CC[C@@H](c2cc(Nc3ccc4c(c3F)CNS4(=O)=O)n[nH]2)C1 (relative stereo) [Example 364]	CDK2/Cyclin E1 (Homo sapiens, UniProt P24941)	IC50	nM	1.6
CC(C)NC(=O)O[C@H]1CC[C@@H](c2cc(Nc3ccc4c(c3)CS(=O)(=O)N4C(C)C3CCOC3)n[nH]2)C1 (relative stereo) [Example 218]	CDK2/Cyclin E1 (Homo sapiens, UniProt P24941)	IC50	nM	112
CC(C)NC(=O)O[C@H]1CC[C@@H](c2cc(Nc3cc4c(cc3F)N(C3CC3)S(=O)(=O)C4)n[nH]2)C1 (relative stereo) [Example 302]	CDK2/Cyclin E1 (Homo sapiens, UniProt P24941)	IC50	nM	21

A: CC[C@H](C)NC(=O)O[C@H]1CC[C@@H](c2cc(Nc3ccc4c(c3F)CS(=O)(=O)N4C3COC3)n[nH]2)C1 (single isomer, unassigned) [Example 261a]
B: CC(C)NC(=O)O[C@H]1CC[C@@H](c2cc(Nc3ccc4c(c3F)CN(CC3CCC3)S4(=O)=O)n[nH]2)C1 (relative stereo) [Example 96]
-- ask // task: argmin of IC50 over [ A , B ] Indicate which entry you chose by stating its label.
-- reply A

* * *

Target: CDK1/Cyclin B1 (Homo sapiens, UniProt P06493)
Sequence (P06493 whole entry): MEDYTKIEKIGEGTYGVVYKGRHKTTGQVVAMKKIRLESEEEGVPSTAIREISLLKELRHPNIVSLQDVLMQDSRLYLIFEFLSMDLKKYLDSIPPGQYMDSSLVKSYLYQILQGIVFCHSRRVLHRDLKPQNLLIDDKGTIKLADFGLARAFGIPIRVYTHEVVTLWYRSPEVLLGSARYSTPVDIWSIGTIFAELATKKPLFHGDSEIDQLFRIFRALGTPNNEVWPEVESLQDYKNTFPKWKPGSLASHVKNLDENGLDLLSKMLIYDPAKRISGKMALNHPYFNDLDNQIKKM
Sequence (P14635 whole entry partner): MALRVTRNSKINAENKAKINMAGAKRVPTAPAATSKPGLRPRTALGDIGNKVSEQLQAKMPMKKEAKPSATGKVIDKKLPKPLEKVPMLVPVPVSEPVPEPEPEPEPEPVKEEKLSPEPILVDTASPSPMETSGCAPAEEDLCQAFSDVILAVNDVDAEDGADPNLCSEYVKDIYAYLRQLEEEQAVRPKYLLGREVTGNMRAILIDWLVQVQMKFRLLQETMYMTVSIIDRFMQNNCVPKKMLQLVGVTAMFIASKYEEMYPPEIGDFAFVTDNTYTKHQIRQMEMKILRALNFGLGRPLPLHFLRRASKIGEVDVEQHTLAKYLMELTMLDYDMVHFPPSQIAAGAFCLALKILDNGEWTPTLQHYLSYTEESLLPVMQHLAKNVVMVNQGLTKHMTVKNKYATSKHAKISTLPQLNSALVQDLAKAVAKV
Assay: CDK1/Cyclin B1 Biochemical Assay (TR-FRET), 0.015 mM ATP
Details: 0.15 μM Rb (Ser780)-biotin substrate, pH7.0, 60 min preincubation, 120 min reaction, room temperature
property: IC50 (nM)

compound	subject_of_test	IC50 / nM
O=C(NC1CCCC1)O[C@H]1CC[C@@H](c2cc(Nc3ccc4c(c3)CS(=O)(=O)N4)n[nH]2)C1 (single isomer, unassigned) [Example 381b]	CDK1/Cyclin B1 (Homo sapiens, UniProt P06493)	19

A: CCCNC(=O)O[C@@H]1CC[C@H](c2cc(Nc3ccc4c(c3F)CNS4(=O)=O)n[nH]2)C1 (single isomer, unassigned) [Example 138a]
B: CC(C)NC(=O)O[C@H]1CC[C@@H](c2cc(Nc3ccc4c(c3)C(F)(F)S(=O)(=O)N4)n[nH]2)C1 (relative stereo)
-- ask // task: argmin of IC50 over [ A , B ] Indicate which entry you chose by stating its label.
-- reply A

* * *

Target: CDK1/Cyclin B1 (Homo sapiens, UniProt P06493)
Assay: CDK1/Cyclin B1 Biochemical Assay (TR-FRET), 0.015 mM ATP
Conditions: 0.15 μM Rb (Ser780)-biotin substrate, pH7.0, 60 min preincubation, 120 min reaction, room temperature
property: IC50 (nM)

Take a look at these entries with their results.
molecule	subject_of_test	unit_string	IC50
CCCNC(=O)O[C@H]1CC[C@@H](c2cc(Nc3ccc4c(c3F)CNS4(=O)=O)n[nH]2)C1 (single isomer, unassigned) [Example 138b]	CDK1/Cyclin B1 (Homo sapiens, UniProt P06493)	nM	60
CC(C)NC(=O)O[C@H]1CC[C@@H](c2cc(Nc3ccc4c(c3F)CN(C(C)C3COC3)S4(=O)=O)n[nH]2)C1 (relative stereo)	CDK1/Cyclin B1 (Homo sapiens, UniProt P06493)	nM	244
CN1c2ccc(Nc3cc([C@@H]4CC[C@H](OC(=O)NC(C)(C)CO)C4)[nH]n3)c(F)c2CS1(=O)=O (single isomer, unassigned) [Example 327b]	CDK1/Cyclin B1 (Homo sapiens, UniProt P06493)	nM	56
CC1(NC(=O)O[C@H]2CC[C@@H](c3cc(Nc4ccc5c(c4F)CS(=O)(=O)N5CC(F)(F)F)n[nH]3)C2)CC1 (single isomer, unassigned) [Example 264a]	CDK1/Cyclin B1 (Homo sapiens, UniProt P06493)	nM	65
CC1(NC(=O)O[C@H]2CC[C@@H](c3cc(Nc4ccc5c(c4F)CN(CCO)S5(=O)=O)n[nH]3)C2)CC1 (single isomer, unassigned) [Example 128b]	CDK1/Cyclin B1 (Homo sapiens, UniProt P06493)	nM	96
CC[C@H](C)NC(=O)O[C@H]1CC[C@@H](c2cc(Nc3ccc4c(c3F)CNS4(=O)=O)n[nH]2)C1 (single isomer, unassigned) [Example 139a]	CDK1/Cyclin B1 (Homo sapiens, UniProt P06493)	nM	223

A: CC(C)NC(=O)O[C@H]1CC[C@@H](c2cc(Nc3ccc4c(c3F)S(=O)(=O)NC4(C)C)n[nH]2)C1 (relative stereo)
B: CC1(NC(=O)O[C@H]2CC[C@@H](c3cc(Nc4ccc5c(c4F)CS(=O)(=O)N5CCO)n[nH]3)C2)CC1 (relative stereo)
C: CC[C@H](C)NC(=O)O[C@H]1CC[C@@H](c2cc(Nc3ccc4c(c3F)CN(CCO)S4(=O)=O)n[nH]2)C1 (relative stereo)
D: COc1c(Nc2cc([C@@H]3CC[C@H](OC(=O)NC(C)C)C3)[nH]n2)ccc2c1S(=O)(=O)NC2 (relative stereo)
-- ask Please list these molecules in decreasing order of IC50. Rank the items, then write their labels in that order.
-- reply A, C, D, B

I: CC(NC(=O)O[C@H]1CC[C@@H](c2cc(Nc3ccc4c(c3)CS(=O)(=O)N4C)n[nH]2)C1)C1COC1 (relative stereo)
II: CC(C)NC(=O)O[C@H]1CC[C@@H](c2cc(Nc3cc4c(cc3F)NS(=O)(=O)C4)n[nH]2)C1 (single isomer, unassigned) [Example 292b]
-- ask Lab note: record which item had the higher IC50, I or II . Indicate which entry you chose by stating its label.
-- reply II
